system: CAF#5 (primary prostate cancer-associated fibroblasts of myCAF-like type); experiment: drug sensitivity score (DSS2, normalised partial AUC of dose-response, 72 h CellTiter-Glo viability) (DSS (dimensionless)); higher = more sensitive (stronger growth inhibition / cytotoxicity); extreme values may be limits of the assay

compound | drug sensitivity score
O=C(Nc1nc2cccc(-c3ccc(CN4CCS(=O)(=O)CC4)cc3)n2n1)C1CC1 [Filgotinib] (tested concentration range 1-10000 nM) | 1.9
Cc1cc(F)c(C(=O)Nc2cccc(-c3nncn3C(C)C)n2)cc1-n1cnc(C2CC2)c1 [Selonsertib] (tested concentration range 0.1-1000 nM) | 0
CCS(=O)(=O)N1CCN(c2ccc(Nc3ncc(C(N)=O)c(NC4CC4)n3)cc2)CC1 [Cerdulatinib] (tested concentration range 1-10000 nM) | 3.8
COc1cc2c(NC3CCN(C(C)C)CC3)nc(C3CCCCC3)nc2cc1OCCCN1CCCC1 [UNC0638] (tested concentration range 1-10000 nM) | 0
O=C(O)c1ccc(O)c2ncccc12 [IOX-1] (tested concentration range 10-100000 nM) | 0.8
NC(=O)NO [Hydroxyurea] (tested concentration range 100-1000000 nM) | 2.5
COC(=O)c1ccc2c(c1)[nH]c1ncnc(NCCCN3CCCCC3)c12 [UM729] (tested concentration range 1-10000 nM) | 1.6
CC(C)(C)c1cc(NC(=O)Nc2ccc(-c3cn4c(n3)sc3cc(OCCN5CCOCC5)ccc34)cc2)no1 [Quizartinib] (tested concentration range 0.1-1000 nM) | 1.5
CC(C)NC[C@@H](C(=O)N1CCN(c2ncnc3c2[C@H](C)C[C@H]3O)CC1)c1ccc(Cl)cc1 [Ipatasertib] (tested concentration range 1-10000 nM) | 1.1
Cn1cnc2c(F)c(Nc3ccc(Br)cc3F)c(C(=O)NOCCO)cc21 [Binimetinib] (tested concentration range 0.1-1000 nM) | 0.8
Oc1ccc2c(c1)CC[C@H](c1ccccc1)[C@@H]2c1ccc(OCCN2CCCC2)cc1 [Lasofoxifene] (tested concentration range 0.1-1000 nM) | 1.3
CCc1c2c(nc3ccc(O)cc13)-c1cc3c(c(=O)n1C2)COC(=O)[C@]3(O)CC [SN-38] (tested concentration range 1-10000 nM) | 14.3
CCCCc1nc2cc(/C=C/C(=O)NO)ccc2n1CCN(CC)CC [Pracinostat] (tested concentration range 1-10000 nM) | 10.3
Cn1ncnc1[C@H]1c2n[nH]c(=O)c3cc(F)cc(c23)N[C@@H]1c1ccc(F)cc1 [Talazoparib] (tested concentration range 0.1-1000 nM) | 6.2
CN1CCC(COc2cnc(-c3cccc(Cn4nc(-c5cccc(C#N)c5)ccc4=O)c3)nc2)CC1 [Tepotinib] (tested concentration range 0.1-1000 nM) | 3
Nc1ccccc1NC(=O)c1ccc(CNc2nccc(-c3cccnc3)n2)cc1 [Mocetinostat] (tested concentration range 1-10000 nM) | 11.8
O=C1CCc2c(Oc3ccc4c(c3)[C@@H]3[C@H](O4)[C@H]3c3nc4cc(C(F)(F)F)ccc4[nH]3)ccnc2N1 [Lifirafenib] (tested concentration range 1-10000 nM) | 2.2
Nc1nc2cc(-c3ccc4ncc(C(=O)N5CCOCC5)n4c3)ccc2o1 [Serabelisib] (tested concentration range 1-10000 nM) | 5.7
CC(C)(C)Cn1c(N)nc2ccc(-c3[nH]c(C(C)(C)C)nc3-c3ccc(F)cc3)nc21 [Ralimetinib] (tested concentration range 1-10000 nM) | 0
CCS(=O)(=O)N1CC(CC#N)(n2cc(-c3ncnc4[nH]ccc34)cn2)C1 [Baricitinib] (tested concentration range 0.2-2500 nM) | 0
CN[C@@H](C)C(=O)N[C@H](C(=O)N1CCC[C@H]1c1nc(C(=O)c2ccc(F)cc2)cs1)C1CCCCC1 [NVP-LCL161] (tested concentration range 2.5-25000 nM) | 0
Cc1cnc(Nc2ccc(OCCN3CCCC3)cc2)nc1Nc1cccc(S(=O)(=O)NC(C)(C)C)c1 [Fedratinib] (tested concentration range 1-10000 nM) | 5.2
O=C(c1ccc(OCCN2CCCCC2)cc1)c1c(-c2ccc(O)cc2)sc2cc(O)ccc12 [Raloxifene] (tested concentration range 1-10000 nM) | 0.2

###

test system: CAF#4 (primary prostate cancer-associated fibroblasts of iCAF-like type); assay: drug sensitivity score (DSS2, normalised partial AUC of dose-response, 72 h CellTiter-Glo viability) (DSS (dimensionless)); higher = more sensitive (stronger growth inhibition / cytotoxicity); extreme values may be limits of the assay
measured.parameter: drug sensitivity score

compound | obs.value
COc1ccc(C[C@H](NC(=O)[C@H](C)NC(=O)CN2CCOCC2)C(=O)N[C@@H](Cc2ccccc2)C(=O)C2(C)CO2)cc1 (stereo in doubt) [ONX-0914] (tested concentration range 1-10000 nM) | 10.3
C[C@H](Nc1ncnc2nc[nH]c12)c1cc2cccc(Cl)c2c(=O)n1-c1ccccc1 [Duvelisib] (tested concentration range 0-500 nM) | 1.7
C[C@@H](Oc1ccc2[nH]nc(/C=C/c3cnn(CCO)c3)c2c1)c1c(Cl)cncc1Cl (tested concentration range 0.1-1000 nM) | 5.7

###

This section presents compounds with their documented drug sensitivity score values.
tested on: CAF#4; assay: drug sensitivity score (DSS2, normalised partial AUC of dose-response, 72 h CellTiter-Glo viability) (DSS (dimensionless)); higher = more sensitive (stronger growth inhibition / cytotoxicity); extreme values may be limits of the assay
measured.parameter: drug sensitivity score

compound | tested.on | obs.value
C[C@H]1C[C@@H]2[C@H]([C@@H](O)C[C@@]3(C)[C@H]2CC[C@]3(O)C(=O)CO)[C@@]2(C)C=CC(=O)C=C12 [Methylprednisolone] (tested concentration range 1-10000 nM) | CAF#4 | 0
O=C(c1ccc(F)c(F)c1Nc1ccc(I)cc1F)N1CC(O)([C@@H]2CCCCN2)C1 [Cobimetinib] (tested concentration range 0.1-1000 nM) | CAF#4 | 1.6
CC[C@H](NC(=O)[C@H](C)NC)C(=O)N1C[C@@H](O)C[C@H]1Cc1c(-c2[nH]c3cc(F)ccc3c2C[C@@H]2C[C@H](O)CN2C(=O)[C@H](CC)NC(=O)[C@H](C)NC)[nH]c2cc(F)ccc12 [Birinapant] (tested concentration range 0.1-1000 nM) | CAF#4 | 0
COc1ccc(Cn2ccc3ccc(C(=O)NO)cc32)cc1 (tested concentration range 1-10000 nM) | CAF#4 | 1.4
NC(=O)NO [Hydroxyurea] (tested concentration range 100-1000000 nM) | CAF#4 | 0.2

###

This section presents molecules with their documented drug sensitivity score values.
system: CAF#3 (primary prostate cancer-associated fibroblasts of myCAF-like type); experiment: drug sensitivity score (DSS2, normalised partial AUC of dose-response, 72 h CellTiter-Glo viability) (DSS (dimensionless)); higher = more sensitive (stronger growth inhibition / cytotoxicity); extreme values may be limits of the assay

molecule | drug sensitivity score
O=C(/C=C/c1cccnc1)NCCCCC1CCN(C(=O)c2ccccc2)CC1 [Daporinad] (tested concentration range 0.1-1000 nM) | 12.8
CN1CCN(c2cc(C(=O)Nc3ccc4c(c3)-c3c(c(C(N)=O)nn3-c3ccc(F)cc3)CC4)c(Cl)cn2)CC1 [PHA 408] (tested concentration range 1-10000 nM) | 2.9
N#CCNC(=O)c1ccc(-c2ccnc(Nc3ccc(N4CCOCC4)cc3)n2)cc1 [Momelotinib] (tested concentration range 1-10000 nM) | 4.4
Cc1nc(=O)c2cc(CN(C)c3ccc(C(=O)N[C@@H](CCC(=O)O)C(=O)O)s3)ccc2[nH]1 [Raltitrexed] (tested concentration range 0.1-1000 nM) | 0
CN1CCN(c2ccc(C(=O)Nc3n[nH]c4ccc(Cc5cc(F)cc(F)c5)cc34)c(NC3CCOCC3)c2)CC1 [Entrectinib] (tested concentration range 0.1-1000 nM) | 2.1
Nc1ccn([C@@H]2O[C@H](CO)[C@@H](O)C2(F)F)c(=O)n1 [Gemcitabine] (tested concentration range 0.1-1000 nM) | 3.9

###

tested on: CAF#3; assay: drug sensitivity score (DSS2, normalised partial AUC of dose-response, 72 h CellTiter-Glo viability) (DSS (dimensionless)); higher = more sensitive (stronger growth inhibition / cytotoxicity); extreme values may be limits of the assay
This section presents compounds with their documented drug sensitivity score values.
measured.parameter: drug sensitivity score

compound | obs.value
Nc1nc(Cl)nc2c1ncn2[C@H]1C[C@H](O)[C@@H](CO)O1 [Cladribine] (tested concentration range 0.1-1000 nM) | 0.5
O=C1CCC(N2C(=O)c3ccccc3C2=O)C(=O)N1 (stereo unspecified) [Thalidomide] (tested concentration range 1-10000 nM) | 0
CN[C@@H](C)C(=O)N[C@H](C(=O)N1CCC[C@H]1c1nc(C(=O)c2ccc(F)cc2)cs1)C1CCCCC1 [NVP-LCL161] (tested concentration range 2.5-25000 nM) | 1.2
C[C@]1(c2nc3c(C(N)=O)cccc3[nH]2)CCCN1 [Veliparib] (tested concentration range 1-10000 nM) | 2.6
NC(=O)NO [Hydroxyurea] (tested concentration range 100-1000000 nM) | 0.5
CCCCOc1nc(N)c2c(n1)N(Cc1cccc(CN3CCCC3)c1)CC(=O)N2 [Vesatolimod] (tested concentration range 1-10000 nM) | 0

Where do these numbers come from? They come from the supplement of paper PMC12592484.
